# system name: T1, CD137-hisFc fusion protein (Sino Biological Cat 10041-H03H) (human, UniProt Q07011 24-186)
# T1 construct: Bought; also called recombinant human CD137 (fused with human Fc and His tag); not shown: His tag and human Fc
# measurement notes: BLI Octet, Fab;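 note: fab fragments expressed in E. coli, binding to human CD137 measured on Octet RED96, kinetics fitted with a 1:1 Langmuir model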
Label scheme for koff: lower than 0.004 s⁻¹ is 0, 0.004 s⁻¹ and above is 1.

QUERY: Check if koff >= 0.004 s⁻¹ (inclusive). Item: Fab 5323 (Fab, V domains shown, Fab from E. coli; also called VH19/VL19) VH: EVQLVESGGGLVQPGGSLRLSCAASGFSLSTSGVGVGWIRQAPGKGLEWIGEIYHSGSTYYSPSLKSRVTISRDNSKNTLYLQLNSLKAEDTAVYYCAREGSDVVTGDWFAYWGQGTLVTVSS VL: DIQLTQSPSSLSASVGDRVTITCRASQGISSVLAWYQQKPGKAPKLLIYDASSLESGVPSRFSGSGSGTDFTLTISSLQPEDFATYYCQQGYSLWTFGQGTKVEIKR
RESULT: 1

QUERY: Record Fab 5409 (Fab, V domains shown, Fab from E. coli; also called VH37/VL37) VH: EVQLVESGGGLVQPGGSLRLSCAASGYSISSGHHWAWIRQAPGKGLEWVSVISGSGSSTYYADSVKGRFTISRDNSKNTLYLQLNSLRAEDTAVYYCAREGSDTVLGDWFAYWGQGTLVTVSS VL: DIQLTQSPSSLSASVGDRVTITCRASQGISSYLAWYQQKPGKAPKLLIYDASNLETGVPSRFSGSGSGTDFTLTISSLQPEDFATYYCQQGYSTWTFGQGTKVEIKR ; criterion: koff no lower than 0.004 s⁻¹. Met?
RESULT: 1

QUERY: Has Fab 5310 (Fab, V domains shown, Fab from E. coli; also called VH15/VL15) VH: EVQLVESGGGLVQPGGSLRLSCAASGFSLSTSGVGVGWIRQAPGKGLEWLALIDWDDDKYYSPSLKSRLTISRDNSKNTLYLQLNSLRAEDTAVYYCARGGSDTVLGDWFAYWGQGTLVTVSS VL: DIQLTQSPSSLSASVGDRVTITCRASQSVSPYLAWYQQKPGKAPKLLIYDASSLESGVPSRFSGSGSGTDFTLTISSLQPEDFATYYCQQGYSLWTFGQGTKVEIKR a recorded koff greater than or equal to 0.004 s⁻¹?
RESULT: 1

QUERY: Is reported koff greater than or equal to 0.004 s⁻¹ here: Fab 5316 (Fab, V domains shown, Fab from E. coli; also called VH17/VL17) VH: EVQLVESGGGLVQPGGSLRLSCAASGYSISSGYHWAWIRQAPGKGLEWVSSISGDGSSTYYADSVKGRFTISRDNSKNTLYLQLNSLRAEDTAVYYCAREGSDAVTGDWFAYWGQGTLVTVSS VL: DIQLTQSPSSLSASVGDRVTITCRASQGVGTYLAWYQQKPGKAPKLLIYDASSLESGVPSRFSGSGSGTDFTLTISSLQPEDFATYYCQQGYSLWTFGQGTKVEIKR
RESULT: 0

QUERY: Does the binder Fab 5365 (Fab, V domains shown, Fab from E. coli; also called VH30/VL30) VH: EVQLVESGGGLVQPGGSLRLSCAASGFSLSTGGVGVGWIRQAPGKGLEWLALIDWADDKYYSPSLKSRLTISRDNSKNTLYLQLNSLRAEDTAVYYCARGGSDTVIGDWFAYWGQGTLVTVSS VL: DIQLTQSPSSLSASVGDRVTITCRASQSIGSYLAWYQQKPGKAPKLLIYDASNLETGVPSRFSGSGSGTDFTLTISSLQPEDFATYYCQQGYYLWTFGQGTKVEIKR have recorded koff that is 0.004 s⁻¹ or more?
RESULT: 0
